Measurement Protocol: Plasma concentration in rat complete Freund's adjuvant-induced inflammation model at 3 mg/kg, po at 2 hrs on third day
Type: ADME, organism-based
Parameters: dose 3 mg/kg, route oral
Quantity: concentration at 2 h

For the molecule shown here, NC(=O)c1cnc(-c2cnc3c(Nc4ccc(C(F)(F)F)cn4)ccnc3n2)c(C(F)(F)F)c1 , give the reported concentration at 2 h. 1280 nM

---

Target System: UniProtKB O35433
Sequence (O35433 whole entry): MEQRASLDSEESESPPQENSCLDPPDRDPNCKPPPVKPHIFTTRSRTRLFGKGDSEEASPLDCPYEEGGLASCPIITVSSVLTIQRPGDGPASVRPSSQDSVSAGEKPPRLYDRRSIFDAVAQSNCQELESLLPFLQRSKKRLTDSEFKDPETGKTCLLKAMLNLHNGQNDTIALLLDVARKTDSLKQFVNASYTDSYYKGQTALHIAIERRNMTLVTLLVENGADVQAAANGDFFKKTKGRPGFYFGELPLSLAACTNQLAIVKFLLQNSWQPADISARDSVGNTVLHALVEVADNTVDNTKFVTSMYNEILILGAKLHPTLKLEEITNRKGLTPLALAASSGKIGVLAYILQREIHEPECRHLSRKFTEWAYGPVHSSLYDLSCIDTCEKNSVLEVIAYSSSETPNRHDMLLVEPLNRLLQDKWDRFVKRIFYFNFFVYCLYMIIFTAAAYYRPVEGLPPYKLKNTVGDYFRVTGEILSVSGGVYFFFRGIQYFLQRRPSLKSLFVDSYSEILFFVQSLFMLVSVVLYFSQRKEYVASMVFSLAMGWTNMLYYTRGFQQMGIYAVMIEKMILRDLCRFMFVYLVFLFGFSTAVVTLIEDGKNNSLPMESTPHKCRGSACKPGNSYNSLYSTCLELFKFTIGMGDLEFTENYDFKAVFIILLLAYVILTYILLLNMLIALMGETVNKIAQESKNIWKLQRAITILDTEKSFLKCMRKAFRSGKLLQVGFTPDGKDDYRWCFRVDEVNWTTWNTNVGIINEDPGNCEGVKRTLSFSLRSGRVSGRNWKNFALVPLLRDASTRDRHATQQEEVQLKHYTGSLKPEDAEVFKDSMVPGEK
Measurement Protocol: Antagonist activity at Sprague-Dawley rat dorsal root ganglion TRPV1 assessed as inhibition of pH-induced receptor activation
Assay type: functional, tissue-based
Quantity: pIC50
Entry type: numeric. Quantity: pIC50, the -log10 of concentration in molar units.

For the molecule shown here, NC(=O)c1cnc(-c2cnc3c(Nc4ccc(C(F)(F)F)cn4)ccnc3n2)c(C(F)(F)F)c1 , give the reported pIC50. 8.89

---

Measurement Protocol: Cmax in rhesus monkey at 1 mg/kg, po
Format: ADME, organism-based, Macaca mulatta
Set-up: dose 1 mg/kg, route oral
Measurement Context: in vivo
Quantity: Cmax (nM)
Kindly provide the numeric value in nM only, without the unit symbol.

For the compound shown here, NC(=O)c1cnc(-c2cnc3c(Nc4ccc(C(F)(F)F)cn4)ccnc3n2)c(C(F)(F)F)c1 , give the reported Cmax. 700

---

Measurement Protocol: AUC (0 to 24 hrs) in rat at 10 mg/kg, po
Assay type: ADME, organism-based
Set-up: time < 24 hr, dose 10 mg/kg, route oral
Measurement Context: plasma
Quantity: AUC(0-t) at 24 h (µM·h)
Kindly provide the numeric value in µM·h only, without the unit symbol.

For the compound shown here, NC(=O)c1cnc(-c2cnc3c(Nc4ccc(C(F)(F)F)cn4)ccnc3n2)c(C(F)(F)F)c1 , give the reported AUC(0-t) at 24 h. 29.9

---

Stability by entry:
Test system: Liver microsomes
Measurement Protocol: Metabolic stability in human liver microsomes assessed per mg of protein after 1 hr
Kindly provide the numeric value in pmol only, without the unit symbol.

// known answers, use as guide
>>> value_measured("FC(F)(F)c1cnc(Nc2ccnc3nc(-c4ncccc4C(F)(F)F)ccc23)nc1")
204
>>> value_measured("FC(F)(F)c1ccc(Nc2ccnc3nc(-c4ncsc4C(F)(F)F)ccc23)nc1")
356
>>> value_measured("NC(=O)c1cnc(-c2cnc3c(Nc4ccc(C(F)(F)F)cn4)ccnc3n2)c(C(F)(F)F)c1")
8

Now examine the next entry.
For the compound shown here, FC(F)(F)c1ccc(Nc2ccnc3nc(-c4ncccc4C(F)(F)F)ccc23)nc1 , give the reported Stability. 169

---

Measurement Protocol: Plasma concentration in rat complete Freund's adjuvant-induced inflammation model at 3 mg/kg, po QD for 3 consecutive days measured at 2 hrs post dose on day 2
Type: ADME, organism-based
Design: dose 3 mg/kg, route oral
Quantity: concentration at 2 h
# do not omit the unit; it follows the number

For the compound shown here, NC(=O)c1cnc(-c2cnc3c(Nc4ccc(C(F)(F)F)cn4)ccnc3n2)c(C(F)(F)F)c1 , give the reported concentration at 2 h. 1100 nM

---

Target System: Amine oxidase [flavin-containing] A (Homo sapiens)
Sequence (P21397 whole entry): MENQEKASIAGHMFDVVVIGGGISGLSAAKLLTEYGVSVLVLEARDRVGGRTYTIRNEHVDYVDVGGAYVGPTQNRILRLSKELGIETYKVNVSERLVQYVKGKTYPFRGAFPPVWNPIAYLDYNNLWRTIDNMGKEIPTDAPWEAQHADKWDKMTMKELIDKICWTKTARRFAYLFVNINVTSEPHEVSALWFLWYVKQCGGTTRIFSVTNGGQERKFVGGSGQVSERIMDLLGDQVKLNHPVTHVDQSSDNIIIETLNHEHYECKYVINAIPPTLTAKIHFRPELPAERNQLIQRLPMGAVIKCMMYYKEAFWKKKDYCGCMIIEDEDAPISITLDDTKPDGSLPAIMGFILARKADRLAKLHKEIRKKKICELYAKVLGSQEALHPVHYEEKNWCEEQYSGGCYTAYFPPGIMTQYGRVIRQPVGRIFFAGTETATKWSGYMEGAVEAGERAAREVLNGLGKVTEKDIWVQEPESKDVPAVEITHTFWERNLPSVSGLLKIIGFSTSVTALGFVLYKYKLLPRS
Quantity: IC50 (nM)
Kindly provide the numeric value in nM only, without the unit symbol.

For the compound shown here, NC(=O)c1cnc(-c2cnc3c(Nc4ccc(C(F)(F)F)cn4)ccnc3n2)c(C(F)(F)F)c1 , give the reported IC50. 2400

Just for reference, ChEMBL document CHEMBL1212834 is where these values come from.
